- measured_target: T1, human LILRB2 expressed on cells (human, UniProt Q8N423 22-597)
- T1 construct: In 293T cells it was expressed from pCMV3-LILRB2-GFP; also called CHO-LILRB2; Jurkat-LILRB2
- T1 sequence (Q8N423 other isoform, or with tags, fused parts or gaps limits assumed): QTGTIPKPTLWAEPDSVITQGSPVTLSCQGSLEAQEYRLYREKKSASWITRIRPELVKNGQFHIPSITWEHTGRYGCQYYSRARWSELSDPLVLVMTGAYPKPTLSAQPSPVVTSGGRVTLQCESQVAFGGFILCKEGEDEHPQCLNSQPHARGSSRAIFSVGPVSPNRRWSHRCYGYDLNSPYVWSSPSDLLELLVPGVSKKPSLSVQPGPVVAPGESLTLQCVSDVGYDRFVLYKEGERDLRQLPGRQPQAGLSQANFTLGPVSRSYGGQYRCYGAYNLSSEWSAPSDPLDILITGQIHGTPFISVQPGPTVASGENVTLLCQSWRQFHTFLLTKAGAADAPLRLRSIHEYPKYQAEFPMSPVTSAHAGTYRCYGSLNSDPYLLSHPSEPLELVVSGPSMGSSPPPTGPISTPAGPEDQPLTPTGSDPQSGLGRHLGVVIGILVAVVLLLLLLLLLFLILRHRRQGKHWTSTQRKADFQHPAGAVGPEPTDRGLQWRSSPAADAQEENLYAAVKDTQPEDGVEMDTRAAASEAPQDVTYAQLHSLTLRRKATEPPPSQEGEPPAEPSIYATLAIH
- assay_name: flow cytometry, Jurkat-LILRB2 cells; blocked ligand: APC HLA-G monomer tetramer
endpoint: IC50
Your answer should be a number followed by the unit of measure.

Sample answers from the record:
>  <binder>
D2M002-002 (antibody, V domains shown, Hit from immunised mice; also called clone #2; anti-LILRB1/2 clone #2) VH: EVQLQQSGPELVKPGASVKMSCKASGYTFTRYVMHWVKQKPGQGLEWIGYINPNNDGTKYNEKFKGKVTLTSDKSSSTAYMELSSLTSEDSAVYYCARGDLEILPYYDHARNAMDYWGQGTSVTVSS VL: DVQMIQSPASLSASVGETVTITCRASENIYSYLAWYQQKQGKSPQLLVYNAKTLAEGVPSRFSGSGSGTQFSLKINSLQPEDFGSYYCQHFWSTPPTFGGGTKLEIK

>  <endpoint_result>
0.065 µg/mL

$$$$
>  <binder>
D2M002-124 (antibody, V domains shown) VH: QVQLVQSGAEVKKPGASVKVSCKASGYTFTSYWIEWVRQAPGQGLEWIGEILPGSGSTNYNAKFKGRVTFTTDTSTSTAYMELRSLRSDDTAVYYCARSGAGGYDSGAFAYWGQGTLVTVSS VL: AIQLTQSPSSLSASVGDRVTITCRASESVDTYGNSFMHWYQQKPGKAPKLLVYRTSNLESGVPSRFSGSGSGTDFTLTISSLQPEDFATYYCQQSNEDPWTFGGGTKVEIK

>  <endpoint_result>
0.03 µg/mL

$$$$
>  <binder>
D2M002-103 (antibody, V domains shown, also called P212_F01) VH: QVQLVQSGAEVKKPGASVKVSCKASGYTFTRYVMHWVRQAPGQRLEWMGWINPNNEETKYSQKFKGRVTLTRDTSASTAYMELSSLRSEDTAVYYCARADLEILPYYDHARYAMDYWGQGTLVTVSS VL: DIQMTQSPSSVSASVGDRVTITCRASENIYSHLAWYQQKPGKAPKLLVYNAKSLQSGVPSRFSGSGSGTDFTLTISSLQPEDFATYYCQHFWSTPPTFGGGTKVEIK

>  <endpoint_result>
0.009 µg/mL

$$$$
>  <binder>
D2M002-126 (antibody, V domains shown, Humanized and optimized variant of D2M002-026) VH: QVQLVQSGAEVKKPGASVKVSCKASGYTFTSYWIEWVRQAPGQGLEWIGEILPGDESTNYNAKFKGRVTFTTDTSTSTAYMELRSLRSDDTAVYYCARSGAGGYDSGAFAYWGQGTLVTVSS VL: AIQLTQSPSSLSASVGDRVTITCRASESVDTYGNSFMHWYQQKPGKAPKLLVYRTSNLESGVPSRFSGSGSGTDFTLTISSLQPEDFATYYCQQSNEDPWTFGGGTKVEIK

>  <endpoint_result>
0.015 µg/mL

$$$$
>  <binder>
D2M002-122 (antibody, V domains shown) VH: QVQLVQSGAEVKKPGASVKVSCKASGYTFTSYWIEWVRQAPGQGLEWIGEILPGEGSTNYNAKFKGRVTFTTDTSTSTAYMELRSLRSDDTAVYYCARSGAGGYDSGAFAYWGQGTLVTVSS VL: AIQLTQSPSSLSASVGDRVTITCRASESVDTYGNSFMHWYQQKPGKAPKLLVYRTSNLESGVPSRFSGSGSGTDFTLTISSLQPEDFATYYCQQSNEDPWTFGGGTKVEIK

>  <endpoint_result>
0.022 µg/mL

$$$$

Proceed to the following item.
IC50 for D2M002-026 (antibody, V domains shown, Hit; also called clone #26) VH: QVQLQQPGAELMKPGASVKISCKATGYTFSSYWIEWVKQRPGHGLEWIGEILPGDGSTNYNAKFKGQATFTADTSSNTAYMQFSSLTSEDSAVYYCARSGAGGYDSGAFAYWGQGTLVTVSS VL: DIVLTQSPASLAVSLGQRATISCRASESVDTYGNSFMHWYQQKPGQPPKLLVYRTSNLESGIPARFSGSGSGTDFTLTINPVEADDVATYYCQQSNEDPWTFGGGTKLEIK is 0.023 µg/mL

Each recorded value in this set is attributed to patent US20250171534A1.
